# Tested on: female NMRI-albino mice
# assay info: Acute toxicity, intravenous, mice
# Type: in vivo
# condition parameters: 100 mg/kg i.v., within 24 hours
Assign Frequency of death to each entry below.

Recall and state the measured Frequency of death for "CN(Cc1ccccc1)[C@H]1CO[C@H]2[C@@H]1OC[C@@H]2O[N+](=O)[O-]" .
0/3

Recall and state the measured Frequency of death for "O=[N+]([O-])O[C@H]1CO[C@H]2[C@@H]1OC[C@@H]2NCCCc1ccccc1" .
5/6

Recall and state the measured Frequency of death for O=[N+]([O-])O[C@H]1CO[C@H]2[C@@H]1OC[C@@H]2NCC(O)COc1cccc(C(F)(F)F)c1 (stereo partly shown) .
1/3

Recall and state the measured Frequency of death for COc1ccccc1OCC(O)CN[C@H]1CO[C@H]2[C@@H]1OC[C@@H]2O[N+](=O)[O-] (stereo partly shown) .
0/3

Recall and state the measured Frequency of death for "O=[N+]([O-])O[C@H]1CO[C@H]2[C@@H]1OC[C@@H]2NCCCOc1ccccc1" .
5/6

Recall and state the measured Frequency of death for "CCN(CC)[C@H]1CO[C@H]2[C@@H]1OC[C@@H]2O[N+](=O)[O-]" .
0/3

Recall and state the measured Frequency of death for "O=[N+]([O-])O[C@@H]1CO[C@H]2[C@@H]1OC[C@@H]2NCCCOc1ccccc1" .
2/3

Recall and state the measured Frequency of death for "COc1ccc(CCCCN[C@H]2CO[C@H]3[C@@H]2OC[C@@H]3O[N+](=O)[O-])cc1" .
10/10

Recall and state the measured Frequency of death for "O=[N+]([O-])O[C@H]1CO[C@H]2[C@@H]1OC[C@@H]2N1CCCCC1" .
2/3

Recall and state the measured Frequency of death for "O=[N+]([O-])O[C@H]1CO[C@H]2[C@@H]1OC[C@@H]2NCCCOc1ccccc1Cl" .
3/6

Recall and state the measured Frequency of death for "O=[N+]([O-])O[C@@H]1CO[C@H]2[C@@H]1OC[C@@H]2NCCCCc1ccccc1" .
3/3

Recall and state the measured Frequency of death for "CC(=O)Nc1ccc(OCCCN[C@H]2CO[C@H]3[C@@H]2OC[C@@H]3O[N+](=O)[O-])cc1" .
0/3

Recall and state the measured Frequency of death for "COc1cccc(OC)c1OCCCN[C@H]1CO[C@H]2[C@@H]1OC[C@@H]2O[N+](=O)[O-]" .
10/10

Recall and state the measured Frequency of death for Cc1cccc(OCC(O)CN[C@H]2CO[C@H]3[C@@H]2OC[C@@H]3O[N+](=O)[O-])c1 (stereo partly shown) .
3/3

Recall and state the measured Frequency of death for "COc1cc(OC)cc(OCCCN[C@H]2CO[C@H]3[C@@H]2OC[C@@H]3O[N+](=O)[O-])c1" .
2/10

Recall and state the measured Frequency of death for "O=[N+]([O-])O[C@H]1CO[C@H]2[C@@H]1OC[C@@H]2NCCCOc1ccc(Cl)cc1" .
4/9

---

Assign dp/dt (inotropism) Δ to each entry below.
# System: mongrel cats
# assay info: Inotropic and heart-circulatory effectiveness on narcotised cats, intravenous
# Assay type: in vivo, cat
# condition parameters: 1.00 mg/kg i.v.; 6 animals
Numbers only; they are read as mm.Hg/sec.

Report dp/dt (inotropism) Δ under test system mongrel cats for O=[N+]([O-])O[C@H]1CO[C@H]2[C@@H]1OC[C@@H]2NCC(O)COc1cccc2ccccc12 (stereo partly shown) .
-3283

Report dp/dt (inotropism) Δ under test system mongrel cats for O=[N+]([O-])O[C@H]1CO[C@H]2[C@@H]1OC[C@@H]2NCC(O)COc1cccc(C(F)(F)F)c1 (stereo partly shown) .
-1333

Report dp/dt (inotropism) Δ under test system mongrel cats for "O=[N+]([O-])O[C@H]1CO[C@H]2[C@@H]1OC[C@@H]2NCCCCCc1ccccc1" .
-2180

Report dp/dt (inotropism) Δ under test system mongrel cats for "O=[N+]([O-])O[C@H]1CO[C@H]2[C@@H]1OC[C@@H]2NCCCCc1ccccc1" .
-2360

---

# System: mongrel cats
# assay info: Inotropic and heart-circulatory effectiveness on narcotised cats, intravenous
# Format: in vivo, cat
# condition parameters: 1.00 mg/kg i.v.; 6 animals
Assign blood pressure WD to each entry below.
Numbers only; they are read as min.

Recall and state the measured blood pressure WD for O=[N+]([O-])O[C@H]1CO[C@H]2[C@@H]1OC[C@@H]2NCC(O)COc1cccc2ccccc12 (stereo partly shown) .
5.6

Recall and state the measured blood pressure WD for N#Cc1ccccc1OCC(O)CN[C@H]1CO[C@H]2[C@@H]1OC[C@@H]2O[N+](=O)[O-] (stereo partly shown) .
14.8

Recall and state the measured blood pressure WD for "O=[N+]([O-])O[C@H]1CO[C@H]2[C@@H]1OC[C@@H]2NCCCc1ccccc1" .
12.2

Recall and state the measured blood pressure WD for "CN(CCCOc1ccccc1)[C@H]1CO[C@H]2[C@@H]1OC[C@@H]2O[N+](=O)[O-]" .
6.5

Recall and state the measured blood pressure WD for O=[N+]([O-])O[C@H]1CO[C@H]2[C@@H]1OC[C@H]2NCC(O)COc1cccc2ccccc12 (stereo partly shown) .
5.2

Recall and state the measured blood pressure WD for CCOc1ccccc1OCC(O)CN[C@H]1CO[C@H]2[C@@H]1OC[C@@H]2O[N+](=O)[O-] (stereo partly shown) .
8.2

Recall and state the measured blood pressure WD for "O=[N+]([O-])O[C@H]1CO[C@H]2[C@@H]1OC[C@@H]2NCCCOc1ccccc1" .
14.8

---

Assign dp/dt (inotropism) before to each entry below.
# Tested on: mongrel cats
# assay info: Inotropic and heart-circulatory effectiveness on narcotised cats, intravenous
# Type: in vivo, cat
# condition parameters: 0.25 mg/kg i.v., before administration; 6 animals
Numbers only; they are read as mm.Hg/sec.

Recall and state the measured dp/dt (inotropism) before for "O=[N+]([O-])O[C@H]1CO[C@H]2[C@@H]1OC[C@@H]2NCCCOc1ccccc1" .
7933

Recall and state the measured dp/dt (inotropism) before for "CN(CCCOc1ccccc1)[C@H]1CO[C@H]2[C@@H]1OC[C@@H]2O[N+](=O)[O-]" .
5333

Recall and state the measured dp/dt (inotropism) before for O=[N+]([O-])O[C@H]1CO[C@H]2[C@@H]1OC[C@H]2NCC(O)COc1cccc2ccccc12 (stereo partly shown) .
5633

Recall and state the measured dp/dt (inotropism) before for CCOc1ccccc1OCC(O)CN[C@H]1CO[C@H]2[C@@H]1OC[C@@H]2O[N+](=O)[O-] (stereo partly shown) .
8333

---

# System: female NMRI-albino mice
# assay info: Acute toxicity, intravenous, mice
# Type: in vivo
# condition parameters: 50 mg/kg i.v., within 24 hours
Assign Frequency of death to each entry below.

Recall and state the measured Frequency of death for "CN(CCCCc1ccccc1)[C@H]1CO[C@H]2[C@@H]1OC[C@@H]2O[N+](=O)[O-]" .
1/3

Recall and state the measured Frequency of death for "O=[N+]([O-])O[C@@H]1CO[C@H]2[C@@H]1OC[C@@H]2NCCCOc1ccccc1" .
0/3

Recall and state the measured Frequency of death for "CN(CCCc1ccccc1)[C@H]1CO[C@H]2[C@@H]1OC[C@@H]2O[N+](=O)[O-]" .
0/3

Recall and state the measured Frequency of death for "COc1ccc(CCCCN[C@H]2CO[C@H]3[C@@H]2OC[C@@H]3O[N+](=O)[O-])cc1" .
1/10

Recall and state the measured Frequency of death for "COc1cccc(OC)c1OCCCN[C@H]1CO[C@H]2[C@@H]1OC[C@@H]2O[N+](=O)[O-]" .
4/10

Recall and state the measured Frequency of death for "O=[N+]([O-])O[C@H]1CO[C@H]2[C@@H]1OC[C@@H]2NCCCCc1ccccc1" .
5/6

---

# Tested on: female NMRI-albino mice
# assay info: Acute toxicity, intravenous, mice
# Type: in vivo
# condition parameters: 50 mg/kg i.v., within 24 hours
Assign Frequency of death to each entry below.

Recall and state the measured Frequency of death for "O=[N+]([O-])O[C@H]1CO[C@H]2[C@@H]1OC[C@@H]2N1CCCCC1" .
0/3

Recall and state the measured Frequency of death for Cc1cccc(OCC(O)CN[C@H]2CO[C@H]3[C@@H]2OC[C@@H]3O[N+](=O)[O-])c1 (some centres unmarked) .
0/3

Recall and state the measured Frequency of death for "O=[N+]([O-])O[C@H]1CO[C@H]2[C@@H]1OC[C@@H]2NCCCc1ccccc1" .
0/10

Recall and state the measured Frequency of death for "O=[N+]([O-])O[C@@H]1CO[C@H]2[C@@H]1OC[C@@H]2NCCCCc1ccccc1" .
1/3

Recall and state the measured Frequency of death for "O=[N+]([O-])O[C@H]1CO[C@H]2[C@@H]1OC[C@@H]2NCCCCOc1ccccc1" .
3/10

Recall and state the measured Frequency of death for "O=[N+]([O-])O[C@H]1CO[C@H]2[C@@H]1OC[C@@H]2NCCCOc1ccccc1" .
0/3

Recall and state the measured Frequency of death for "COc1cccc(OCCCN[C@H]2CO[C@H]3[C@@H]2OC[C@@H]3O[N+](=O)[O-])c1OC" .
0/10

Recall and state the measured Frequency of death for "O=[N+]([O-])O[C@H]1CO[C@H]2[C@@H]1OC[C@@H]2NCCCOc1ccccc1Cl" .
0/10
